- Test system: MIA PaCa-2
- Assay method text: Cytotoxicity against human MIA PaCa-2 cells assessed as inhibition of cell growth incubated for 3 days in glucose-containing medium by MTT assay
- Assay type: functional, cell-based
- Test conditions: MIA PaCa-2, 72 h
pIC50: −log10 of the molar value.
Known pIC50 of a selection of molecules

# example entries with known answers
Fetch value of pIC50 on MIA PaCa-2 for "CCOC(=O)[C@@H]1CCCN(S(=O)(=O)c2cccc(S(=O)(=O)N(CC)CC)c2)C1" .
< 5.00

Check MIA PaCa-2 data and give pIC50 for "CCN1CC(NC(=O)[C@@H]2CCCN(S(=O)(=O)c3ccc(S(=O)(=O)N(CC)CC)cc3)C2)C1" .
< 5.00

Continue with the next molecule.
Answer briefly: pIC50 recorded on MIA PaCa-2 for "CCOC(=O)[C@@H]1CCCN(S(=O)(=O)c2ccc3cc(S(=O)(=O)N(CC)CC)ccc3c2)C1"
< 5.52

====

- Tested on: MIA PaCa-2
- Assay method text: Cytotoxicity against human MIA PaCa-2 cells assessed as inhibition of cell growth incubated for 7 days in glucose-containing medium by MTT assay
- Format: functional, cell-based
- Test conditions: MIA PaCa-2, 168 h
pIC50: −log10 of the molar value.
Measurement label: pIC50

Give the value of pIC50 reported for the following: "CCOC(=O)[C@@H]1CCCN(C(=O)c2ccc(S(=O)(=O)N(CC)CC)cc2)C1"
< 5.00

Provide one value: measured pIC50 of "CCOC(=O)[C@@H]1CCCN(S(=O)(=O)c2ccc(S(=O)(=O)N(C)Cc3ccccc3)cc2)C1"
< 4.52

Continuing:
Please list pIC50 recorded for the compound "CCOC(=O)[C@@H]1CCCN(S(=O)(=O)c2ccc(S(=O)(=O)N3CCNCC3)cc2)C1"
< 4.52

State, in one line, measured pIC50 of "CCOC(=O)N1CCC[C@@H](S(=O)(=O)c2ccc(S(=O)(=O)N(CC)CC)cc2)C1"
< 4.52

Supply pIC50 value. Item: "CCOC(=O)N1CCC[C@H](S(=O)(=O)c2ccc(S(=O)(=O)N(CC)CC)cc2)C1"
< 4.52
